Each entry below carries its reported protein stability index.
B1: ZNF277 (parent)
chain: ILREELQKQRLREILEQQQQERND

Variants of: B1
Assay: protein stability index of a GFP-peptide fusion (GPS, HEK-293T) (PSI 1-6); higher = more stable;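 also: lentivirally expressed fusions sorted by FACS into six bins by GFP to DsRed ratio, PSI derived from sequencing read proportions per bin multiplied by bin number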
Conditions: c terminus: a fixed tail appended
In your answer, state the number alone without any accompanying words.

Sample records with protein stability index:
| mutation spec | protein stability index |
| --- | --- |
| E21M | 3.73 |
| Q19S | 4.41 |

### Prompt What does the data say about its protein stability index? Entry: "Q17E"
### Response 4.82

### Prompt What does the data say about its protein stability index? Entry: "Q9I"
### Response 4.18

### Prompt What does the data say about its protein stability index? Entry: "Q19G"
### Response 4.57

### Prompt What does the data say about its protein stability index? Entry: "E5Y"
### Response 3.55

### Prompt What does the data say about its protein stability index? Entry: "E5A"
### Response 2.71

### Prompt What does the data say about its protein stability index? Entry: "Q20S"
### Response 4.37

### Prompt What does the data say about its protein stability index? Entry: "Q7C"
### Response 4.24

### Prompt What does the data say about its protein stability index? Entry: "R22K"
### Response 4.63

### Prompt What does the data say about its protein stability index? Entry: "L15C"
### Response 4.62

### Prompt What does the data say about its protein stability index? Entry: "R12F"
### Response 4.23

### Prompt What does the data say about its protein stability index? Entry: "E21H"
### Response 4.61

### Prompt What does the data say about its protein stability index? Entry: "I1C"
### Response 4.79

### Prompt What does the data say about its protein stability index? Entry: "E5N"
### Response 4.7

### Prompt What does the data say about its protein stability index? Entry: "D24Y"
### Response 3.7

### Prompt What does the data say about its protein stability index? Entry: "Q17M"
### Response 3.88

### Prompt What does the data say about its protein stability index? Entry: "Q20M"
### Response 3.96

### Prompt What does the data say about its protein stability index? Entry: "Q17F"
### Response 3.87

### Prompt What does the data say about its protein stability index? Entry: "E16D"
### Response 4.61

### Prompt What does the data say about its protein stability index? Entry: "Q18P"
### Response 4.68

### Prompt What does the data say about its protein stability index? Entry: "R10F"
### Response 3.47
